- TEST_NAME: Maximum solubility of cholest-4-en-3-one oxime in water and in different oils
- Assay type: physicochemical
- TEST_PARAMETERS: olive oil, oil or lipid
READOUT_LABEL: solubility (mg/mL)
Answers are plain numbers, in mg/mL.

**Query** Please look up its solubility: `CC(C)CCC[C@@H](C)[C@H]1CC[C@H]2[C@@H]3CCC4=CC(=NO)CC[C@]4(C)[C@H]3CC[C@]12C`
**Result** 40

---

- TEST_NAME: Maximum solubility of cholest-4-en-3-one oxime in water and in different oils
- Format: physicochemical
- TEST_PARAMETERS: sesame oil, oil or lipid
READOUT_LABEL: solubility (mg/mL)
Answers are plain numbers, in mg/mL.

**Query** Please look up its solubility: CC(C)CCC[C@@H](C)[C@H]1CC[C@H]2[C@@H]3CCC4=CC(=NO)CC[C@]4(C)[C@H]3CC[C@]12C [cholest-4-en-3-one oxime]
**Result** 35

---

- TEST_NAME: Maximum solubility of cholest-4-en-3-one oxime in water and in different oils
- Type: physicochemical
- TEST_PARAMETERS: soya oil, oil or lipid
READOUT_LABEL: solubility (mg/mL)
Numbers only, in mg/mL.

**Query** Please look up its solubility: CC(C)CCC[C@@H](C)[C@H]1CC[C@H]2[C@@H]3CCC4=CC(=NO)CC[C@]4(C)[C@H]3CC[C@]12C [cholest-4-en-3-one oxime]
**Result** 30

---

- TEST_NAME: Maximum solubility of cholest-4-en-3-one oxime in water and in different oils
- Assay type: physicochemical
- TEST_PARAMETERS: castor oil, oil or lipid
READOUT_LABEL: solubility

**Query** Please look up its solubility: `CC(C)CCC[C@@H](C)[C@H]1CC[C@H]2[C@@H]3CCC4=CC(=NO)CC[C@]4(C)[C@H]3CC[C@]12C`
**Result** < 15 mg/mL

---

- TEST_NAME: Maximum solubility of cholest-4-en-3-one oxime in water and in different oils
- Assay type: physicochemical
- TEST_PARAMETERS: rapeseed oil, oil or lipid
READOUT_LABEL: solubility

**Query** Please look up its solubility: CC(C)CCC[C@@H](C)[C@H]1CC[C@H]2[C@@H]3CCC4=CC(=NO)CC[C@]4(C)[C@H]3CC[C@]12C [cholest-4-en-3-one oxime]
**Result** < 15 mg/mL

---

- TEST_NAME: Maximum solubility of cholest-4-en-3-one oxime in water and in different oils
- Assay type: physicochemical
- TEST_PARAMETERS: ground nut oil, oil or lipid
READOUT_LABEL: solubility

**Query** Please look up its solubility: `CC(C)CCC[C@@H](C)[C@H]1CC[C@H]2[C@@H]3CCC4=CC(=NO)CC[C@]4(C)[C@H]3CC[C@]12C`
**Result** < 15 mg/mL

---

- TEST_NAME: Maximum solubility of cholest-4-en-3-one oxime in water and in different oils
- Assay type: physicochemical
- TEST_PARAMETERS: oil or lipid; Mixture of medium-chain triglycerides (ESTASAN ®, MYGLIOL ®)
READOUT_LABEL: solubility (mg/mL)
Answers are plain numbers, in mg/mL.

**Query** Please look up its solubility: `CC(C)CCC[C@@H](C)[C@H]1CC[C@H]2[C@@H]3CCC4=CC(=NO)CC[C@]4(C)[C@H]3CC[C@]12C`
**Result** 45
